# TARGET UNDER TEST: Leukotriene A-4 hydrolase (Homo sapiens)
# RUN PARAMETERS: at 10 µM
# Description: Inhibition of recombinant human LTA4H Epoxide Hydrolase expressed in Escherichia coli BL21 (DE3) pLysS at 10 uM preincubated for 10 mins followed by addition of LTA4 as substrate measured after 15 mins by reverse-phase HPLC analysis
ASSAY READOUT: inhibition

Previously resolved entries follow.
CN(C)Cc1c(C(=O)NCCOc2ccc(C(=O)NO)cc2)oc2ccccc12 : > 50%
O=C(CCCCCN1C(=O)c2cccc3cccc(c23)C1=O)NO : > 50%
CN(C)c1ccc(C(=O)NCCCCCCC(=O)NO)cc1 : > 50%
Cc1[nH]c2ccccc2c1CCNCc1ccc(/C=C/C(=O)NO)cc1 : > 50%
CCCCc1nc2cc(/C=C/C(=O)NO)ccc2n1CCN(CC)CC : > 50%
CC(/C=C/C(=O)NO)=C\[C@@H](C)C(=O)c1ccc(N(C)C)cc1 : > 50%

-- ask API: value(readout=inhibition, system=Leukotriene A-4 hydrolase (Homo sapiens)) for record Cn1cc(CNCC2CCN(c3ncc(C(=O)NO)cn3)CC2)c2ccccc21
-- reply > 50%

-- ask API: value(readout=inhibition, system=Leukotriene A-4 hydrolase (Homo sapiens)) for record O=C(CCCCCCC(=O)Nc1ccc([C@H]2O[C@@H](CSc3nc(-c4ccccc4)c(-c4ccccc4)o3)C[C@@H](c3ccc(CO)cc3)O2)cc1)NO
-- reply > 50%

---

# TARGET UNDER TEST: Leukotriene A-4 hydrolase (Homo sapiens);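 note: recombinant human LTA4H epoxide hydrolase activity, 10 min preincubation with inhibitor, then LTA4 substrate for 15 min, product quantified by reverse-phase HPLC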
# RUN PARAMETERS: at 10 µM
ASSAY READOUT: inhibition

Previously resolved entries follow.
O=C(/C=C/c1cccc(S(=O)(=O)Nc2ccccc2)c1)NO : > 50%
CCCC(CCC)C(=O)O [VALPROATE SODIUM] : > 50%
CN(C)Cc1ccc(S(=O)(=O)n2ccc(/C=C/C(=O)NO)c2)cc1 : > 50%
C#Cc1cccc(Nc2ncnc3cc(OC)c(OCCCCCCC(=O)NO)cc23)c1 : > 50%
O=C(CCCCCCC(=O)Nc1ccccc1)NO : > 50%
CCN(CC)Cc1ccc2cc(COC(=O)Nc3ccc(C(=O)NO)cc3)ccc2c1 : > 50%
Nc1ccccc1NC(=O)c1ccc(CNc2nccc(-c3cccnc3)n2)cc1 : > 50%
Nc1ccccc1NC(=O)c1ccc(CNC(=O)OCc2cccnc2)cc1 : > 50%

Now examine the next entry.
-- ask Any idea what its inhibition is? The compound is O=C(CCCCCCNC(=O)c1cnc(N(c2ccccc2)c2ccccc2)nc1)NO
-- reply > 50%

This collection of values is drawn from ChEMBL document CHEMBL4007425.
